Target: Kappa-type opioid receptor (Cavia porcellus, UniProt P41144)
Sequence (P41144 whole entry): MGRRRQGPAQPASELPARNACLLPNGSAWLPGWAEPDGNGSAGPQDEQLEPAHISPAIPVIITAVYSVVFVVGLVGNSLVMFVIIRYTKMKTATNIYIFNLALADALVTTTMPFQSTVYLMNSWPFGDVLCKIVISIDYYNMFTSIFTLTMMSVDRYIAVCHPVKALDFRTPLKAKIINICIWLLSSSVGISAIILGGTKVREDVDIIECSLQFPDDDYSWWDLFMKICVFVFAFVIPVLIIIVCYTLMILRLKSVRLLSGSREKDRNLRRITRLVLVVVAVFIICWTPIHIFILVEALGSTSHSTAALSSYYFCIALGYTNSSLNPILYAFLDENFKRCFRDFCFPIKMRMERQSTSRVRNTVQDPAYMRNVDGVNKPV
hey, just use true if measured Ki is less than 0.9 nM, otherwise false

A record lists `Cn1c(/C=C/C(=O)c2ccccc2)cc2c1[C@@H]1Oc3c(O)ccc4c3[C@@]13CCN(CC1CC1)[C@H](C4)[C@]3(O)C2` . Is its Ki below 0.9 nM?
true

Is 0.9 nM strictly greater than the compound's reported Ki? compound: `CCCCCC(=O)/C=C/c1cc2c(n1C)[C@@H]1Oc3c(O)ccc4c3[C@@]13CCN(CC1CC1)[C@H](C4)[C@]3(O)C2`
false

Given the entry `Cn1c(CCC(=O)CCc2ccccc2)cc2c1[C@@H]1Oc3c(O)ccc4c3[C@@]13CCN(CC1CC1)[C@H](C4)[C@]3(O)C2` , would its reported Ki be below 0.9 nM?
true

Answer whether the compound `Cn1c(/C=C/C(=O)CCc2ccccc2)cc2c1[C@@H]1Oc3c(O)ccc4c3[C@@]13CCN(CC1CC1)[C@H](C4)[C@]3(O)C2` has Ki strictly less than 0.9 nM
false

Below 0.9 nM on Ki? Entry `CCC/C=C/c1cc2c(n1C)[C@@H]1Oc3c(O)ccc4c3[C@@]13CCN(CC1CC1)[C@H](C4)[C@]3(O)C2`
false

Reference for the values: ChEMBL document CHEMBL1221313
